system: Bacillus subtilis; assay: Antibacterial activity against Bacillus subtilis MTCC 2763 assessed as growth inhibition after 18 hrs by CLSI microdilution broth assay; type: functional; details: MTCC 2763, 18 h
Where a SMILES comes first, the peptide text is derived from it. [ ]: non-standard residue; d: D form. 3Abz = Nc1cccc(C(=O)O)c1; Orn = NCCC[CH](N)C(=O)O
measure.name: MIC (µg/mL)
Express the result in µg/mL but write the number alone.

According to the records, this compound N=C(N)NCCCC(N)C(=O)NC(CCCNC(=N)N)C(=O)NC(Cc1c[nH]c2ccccc12)C(=O)NC(Cc1c[nH]c2ccccc12)C(=O)NC(CCCNC(=N)N)C(N)=O (centres undefined) (H-RRWWR-NH2; configuration not given here) displays MIC of 70

According to the records, this compound N=C(N)NCCCC(NC(=O)C(CCCNC(=N)N)NC(=O)c1cccc(NC(=O)C(Cc2c[nH]c3ccccc23)NC(=O)C(CCCNC(=N)N)NC(=O)C(N)Cc2c[nH]c3ccccc23)c1)C(N)=O (centres undefined) (H-WRW[3Abz]RR-NH2; configuration not given here) displays MIC of 40

According to the records, this compound N=C(N)NCCCC(NC(=O)C(CCCNC(=N)N)NC(=O)c1cccc(NC(=O)C(Cc2c[nH]c3ccccc23)NC(=O)C(N)Cc2c[nH]c3ccccc23)c1)C(N)=O (centres undefined) (H-WW[3Abz]RR-NH2; configuration not given here) displays MIC of 70

According to the records, this compound NCCCC(NC(=O)C(Cc1c[nH]c2ccccc12)NC(=O)c1cccc(NC(=O)C(Cc2c[nH]c3ccccc23)NC(=O)C(CCCN)NC(=O)C(N)Cc2c[nH]c3ccccc23)c1)C(N)=O (centres undefined) (H-W[Orn]W[3Abz]W[Orn]-NH2; configuration not given here) displays MIC of 25

----------
assay: Retention time of the compound by HPLC analysis; format: physicochemical
Where a SMILES comes first, the peptide text is derived from it. [ ]: non-standard residue; d: D form. 3Abz = Nc1cccc(C(=O)O)c1; Orn = NCCC[CH](N)C(=O)O
Record form. Attribute: Retention_time. Fill in for each entry.

According to the records, this compound NCCCC(N)C(=O)NC(CCCN)C(=O)NC(Cc1c[nH]c2ccccc12)C(=O)Nc1cccc(C(=O)NC(Cc2c[nH]c3ccccc23)C(=O)NC(CCCN)C(N)=O)c1 (stereo not given) (H-[Orn][Orn]W[3Abz]W[Orn]-NH2; configuration not given here) displays Retention_time of 24.231 min

According to the records, this compound NCCCC(N)C(=O)NC(CCCN)C(=O)NC(Cc1c[nH]c2ccccc12)C(=O)NC(Cc1c[nH]c2ccccc12)C(=O)NC(CCCN)C(N)=O (stereo not given) (H-[Orn][Orn]WW[Orn]-NH2; configuration not given here) displays Retention_time of 26.672 min

According to the records, this compound N=C(N)NCCCC(NC(=O)c1cccc(NC(=O)C(N)Cc2c[nH]c3ccccc23)c1)C(N)=O (stereo not given) displays Retention_time of 26.553 min

According to the records, this compound NCCCC(N)C(=O)NC(Cc1c[nH]c2ccccc12)C(=O)NC(Cc1c[nH]c2ccccc12)C(=O)Nc1cccc(C(=O)NC(CCCN)C(=O)NC(CCCN)C(N)=O)c1 (stereo not given) (H-[Orn]WW[3Abz][Orn][Orn]-NH2; configuration not given here) displays Retention_time of 23.979 min

According to the records, this compound N=C(N)NCCCC(NC(=O)C(CCCNC(=N)N)NC(=O)c1cccc(NC(=O)C(CCCNC(=N)N)NC(=O)C(N)Cc2c[nH]c3ccccc23)c1)C(N)=O (stereo not given) (H-WR[3Abz]RR-NH2; configuration not given here) displays Retention_time of 22.64 min

----------
test system: Bacillus subtilis; assay: Antibacterial activity against Bacillus subtilis MTCC 2763 assessed as growth inhibition after 18 hrs by CLSI microdilution broth assay; type: functional; conditions: MTCC 2763, 18 h
Where a SMILES comes first, the peptide text is derived from it. [ ]: non-standard residue; d: D form. 3Abz = Nc1cccc(C(=O)O)c1; Orn = NCCC[CH](N)C(=O)O
measure.name: MIC (µg/mL)
Express the result in µg/mL but write the number alone.

According to the records, this compound N=C(N)NCCCC(N)C(=O)NC(CCCNC(=N)N)C(=O)NC(Cc1c[nH]c2ccccc12)C(=O)Nc1cccc(C(=O)NC(Cc2c[nH]c3ccccc23)C(=O)NC(CCCNC(=N)N)C(N)=O)c1 (configuration not stated) (H-RRW[3Abz]WR-NH2; configuration not given here) displays MIC of 25

According to the records, this compound N=C(N)NCCCC(NC(=O)C(Cc1c[nH]c2ccccc12)NC(=O)C(Cc1c[nH]c2ccccc12)NC(=O)C(CCCNC(=N)N)NC(=O)C(N)Cc1c[nH]c2ccccc12)C(N)=O (configuration not stated) (H-WRWWR-NH2; configuration not given here) displays MIC of 50

According to the records, this compound NCCCC(N)C(=O)NC(CCCN)C(=O)NC(Cc1c[nH]c2ccccc12)C(=O)Nc1cccc(C(=O)NC(Cc2c[nH]c3ccccc23)C(=O)NC(CCCN)C(N)=O)c1 (configuration not stated) (H-[Orn][Orn]W[3Abz]W[Orn]-NH2; configuration not given here) displays MIC of 40

According to the records, this compound NCCCC(N)C(=O)NC(CCCN)C(=O)NC(Cc1c[nH]c2ccccc12)C(=O)NC(Cc1c[nH]c2ccccc12)C(=O)NC(CCCN)C(N)=O (configuration not stated) (H-[Orn][Orn]WW[Orn]-NH2; configuration not given here) displays MIC of 100

According to the records, this compound NCCCC(N)C(=O)NC(Cc1c[nH]c2ccccc12)C(=O)Nc1cccc(C(=O)NC(Cc2c[nH]c3ccccc23)C(=O)NC(CCCN)C(N)=O)c1 (configuration not stated) (H-[Orn]W[3Abz]W[Orn]-NH2; configuration not given here) displays MIC of 50

According to the records, this compound NCCCC(N)C(=O)NC(Cc1c[nH]c2ccccc12)C(=O)NC(Cc1c[nH]c2ccccc12)C(=O)Nc1cccc(C(=O)NC(CCCN)C(=O)NC(CCCN)C(N)=O)c1 (configuration not stated) (H-[Orn]WW[3Abz][Orn][Orn]-NH2; configuration not given here) displays MIC of 100

According to the records, this compound N=C(N)NCCCC(NC(=O)c1cccc(NC(=O)C(CCCNC(=N)N)NC(=O)C(N)Cc2c[nH]c3ccccc23)c1)C(N)=O (configuration not stated) (H-WR[3Abz]R-NH2; configuration not given here) displays MIC of 200

According to the records, this compound N=C(N)NCCCC(N)C(=O)NC(Cc1c[nH]c2ccccc12)C(=O)Nc1cccc(C(=O)NC(CCCNC(=N)N)C(=O)NC(CCCNC(=N)N)C(N)=O)c1 (configuration not stated) (H-RW[3Abz]RR-NH2; configuration not given here) displays MIC of 100

According to the records, this compound N=C(N)NCCCC(N)C(=O)NC(CCCNC(=N)N)C(=O)NC(Cc1ccccc1)C(=O)Nc1cccc(C(=O)NC(Cc2ccccc2)C(=O)NC(CCCNC(=N)N)C(N)=O)c1 (configuration not stated) (H-RRF[3Abz]FR-NH2; configuration not given here) displays MIC of 200

According to the records, this compound N=C(N)NCCCC(NC(=O)C(CCCNC(=N)N)NC(=O)c1cccc(NC(=O)C(CCCNC(=N)N)NC(=O)C(N)Cc2c[nH]c3ccccc23)c1)C(N)=O (configuration not stated) (H-WR[3Abz]RR-NH2; configuration not given here) displays MIC of 170

According to the records, this compound N=C(N)NCCCC(N)C(=O)NC(Cc1c[nH]c2ccccc12)C(=O)NC(Cc1c[nH]c2ccccc12)C(=O)Nc1cccc(C(=O)NC(CCCNC(=N)N)C(=O)NC(CCCNC(=N)N)C(N)=O)c1 (configuration not stated) (H-RWW[3Abz]RR-NH2; configuration not given here) displays MIC of 75

According to the records, this compound N=C(N)NCCCC(NC(=O)C(Cc1c[nH]c2ccccc12)NC(=O)c1cccc(NC(=O)C(CCCNC(=N)N)NC(=O)C(CCCNC(=N)N)NC(=O)C(N)Cc2c[nH]c3ccccc23)c1)C(N)=O (configuration not stated) (H-WRR[3Abz]WR-NH2; configuration not given here) displays MIC of 70

According to the records, this compound NCCCC(NC(=O)C(Cc1c[nH]c2ccccc12)NC(=O)c1cccc(NC(=O)C(CCCN)NC(=O)C(CCCN)NC(=O)C(N)Cc2c[nH]c3ccccc23)c1)C(N)=O (configuration not stated) (H-W[Orn][Orn][3Abz]W[Orn]-NH2; configuration not given here) displays MIC of 75

According to the records, this compound N=C(N)NCCCC(NC(=O)C(Cc1c[nH]c2ccccc12)NC(=O)c1cccc(NC(=O)C(Cc2c[nH]c3ccccc23)NC(=O)C(CCCNC(=N)N)NC(=O)C(N)Cc2c[nH]c3ccccc23)c1)C(N)=O (configuration not stated) (H-WRW[3Abz]WR-NH2; configuration not given here) displays MIC of 20

According to the records, this compound NCCCC(NC(=O)C(Cc1c[nH]c2ccccc12)NC(=O)C(Cc1c[nH]c2ccccc12)NC(=O)C(CCCN)NC(=O)C(N)Cc1c[nH]c2ccccc12)C(N)=O (configuration not stated) (H-W[Orn]WW[Orn]-NH2; configuration not given here) displays MIC of 120
